The reported measurements were obtained from paper PMC10279719.

target: T1, CrkII N-terminal SH3 domain (CrkII^NSH3, residues 134-191) (human, UniProt P46108-1 134-191); experiment: SPR; CrkII NSH3 amine coupled to a CM5 chip, PRM peptides as analytes (100 µM-100 nM); Biacore S200, 20 °C, HBS-TP; steady state, 1:1 model; details: both partners purified
T1 construct: human CrkII NSH3 domain, UniProt P46108-1, residues 134-191; Amine coupled to a CM5 chip in a2; analyte in a4; in the syringe in ITC
measurement name: Kd (nM)
The reply should contain only the number, in nM.

binder: Ac-QPPPLPQKKIVSR-NH2 (human PEAK2 (SgK223, PRAG1) residues 809-821; source: synthetic peptide, bought: Mimotopes (95% purity)) [PEAK2 809-821 proline-rich motif peptide (Ac-QPPPLPQKKIVSR-NH2)]
Kd (nM): 2400

// below: Kd requested for another binder
The reported value for Ac-PTPPPLPKKMIIR-NH2 (source: synthetic peptide, bought: Mimotopes (95% purity)) [PEAK1 1150-1162 proline-rich motif peptide (Ac-PTPPPLPKKMIIR-NH2)] in terms of Kd is 900
